// reported switch fluorescence ratio for each item listed
# Tested on: ATP;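 note: ATP exposure 15 min at 22 °C before imaging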
# measurement protocol: switch fluorescence ratio, 500 uM ATP over buffer (Cy3 cluster intensity, sum of 5 cycles each) (fold (ratio)); higher = stronger signal-on switching upon ATP binding; sequences stand for … in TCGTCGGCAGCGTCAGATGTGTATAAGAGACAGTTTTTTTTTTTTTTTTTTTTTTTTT…TC
# protocol conditions: aptamer strand: ATP DNA aptamer (quencher-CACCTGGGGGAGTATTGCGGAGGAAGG + anchor), 100 nM annealed; ATP concentration: 500 uM

Please review the entries below; each comes with its answer.
chain | readout kind | data value
TGAAAATTCA | switch fluorescence ratio | 1.05
AAGAGGAGCG | switch fluorescence ratio | 0.967
TCAGGTTTTT | switch fluorescence ratio | 1.13
TTTAGCACAG | switch fluorescence ratio | 1.06

Asked: Given the sequence "CGGTGTGGGG" , write its reported switch fluorescence ratio.
Given back: 1.01

Asked: Given the sequence "GGAGGCGGGA" , write its reported switch fluorescence ratio.
Given back: 1.02
